Assay explanation: Liver microsome stability, human
Format: in vitro ADME
Recorded conditions: liver microsomes, pH 7.4, Table 2A, read-out: Microsome Stability Human t1/2
Measured attribute: half-life at 10 μM (min)
Output spec: scalar in min, unitless text.

Please review the following examples before continuing.
[
  {
    "Structure smiles": "[2H]C([2H])([2H])N(CC(=O)OCC)/C(=N\\C(=O)OC(C)(C)C)NC(=O)CCCCCCCCCC",
    "Measured attribute": "half-life at 10 μM",
    "Obs value": 16
  },
  {
    "Structure smiles": "Cl.[H]/N=C(/NC(=O)CCCCCCC/C=C\\CCCCCCCC)N(CC(=O)OCCCCCCC)C([2H])([2H])[2H]",
    "Measured attribute": "half-life at 10 μM",
    "Obs value": 6
  },
  {
    "Structure smiles": "[2H]C([2H])([2H])N(CC(=O)O)C(=N)NC(=O)CCCCCCC/C=C\\CCCCCC",
    "Measured attribute": "half-life at 10 μM",
    "Obs value": 90
  }
]

Report measured half-life at 10 μM; entry is `[2H]C([2H])([2H])N(CC(=O)[O-])C(=N)NC(=O)CCCCCCCC.[Li+]`
65

---

Entries and their Chemical Stability PBS % T0 at 2 hours at 37 °C.
Assay explanation: Chemical stability in phosphate buffered saline (PBS)
Type: physicochemical
Recorded conditions: Table 2B, 50 μM prodrug
Output spec: scalar in %, unitless text.

Please review the following examples before continuing.
[
  {
    "Compound": "[2H]C([2H])([2H])N(CC(=O)OC(C)(C)C(C)C)C(=N)NC(=O)CCCCCC",
    "Units symbol": "%",
    "Obs value": 101
  },
  {
    "Compound": "Cl.[2H]C([2H])([2H])N(CC(=O)OC(C)C(C)(C)C)C(=N)NC(=O)CCCCCCCCCC (stereo not shown)",
    "Units symbol": "%",
    "Obs value": 98
  },
  {
    "Compound": "[2H]C([2H])([2H])N(CC(=O)OC(C)(C)C(C)(C)O)C(=N)NC(=O)CCCCCC",
    "Units symbol": "%",
    "Obs value": 58
  }
]

Report measured Chemical Stability PBS % T0 at 2 hours at 37 °C.; entry is `[2H]C([2H])([2H])N(CC(=O)OC(C)(C)C(C)(C)O)C(=N)NC(=O)CCCCCCCCCC`
106

Report measured Chemical Stability PBS % T0 at 2 hours at 37 °C.; entry is `Cl.[2H]C([2H])([2H])N(CC(=O)OC(C)(C)C(F)(F)F)C(=N)NC(=O)CCCCCCCCCC`
101

Report measured Chemical Stability PBS % T0 at 2 hours at 37 °C.; entry is `[2H]C([2H])([2H])N(CC(=O)O)C(=N)NC(=O)CCCCCCCCCCO`
103

Report measured Chemical Stability PBS % T0 at 2 hours at 37 °C.; entry is `[2H]C([2H])([2H])N(CC(=O)OC(C)(C)C(C)C)C(=N)NC(=O)CCCCCCCCCC`
62

Report measured Chemical Stability PBS % T0 at 2 hours at 37 °C.; entry is `Cl.[2H]C([2H])([2H])N(CC(=O)OC(C)(C)C(F)(F)F)C(=N)NC(=O)CCCCCC`
97
